target: T1, native full length human CB1 receptor (cannabinoid 1 receptor) (human, UniProt P21554 1-472); assay: flow cytometry, TRex-CHO full length native human CB1 cells; Exp 2
T1 construct: whole, on cells; also called A156; Native human CB1 TRex CHO A156
T1 sequence (P21554 whole entry): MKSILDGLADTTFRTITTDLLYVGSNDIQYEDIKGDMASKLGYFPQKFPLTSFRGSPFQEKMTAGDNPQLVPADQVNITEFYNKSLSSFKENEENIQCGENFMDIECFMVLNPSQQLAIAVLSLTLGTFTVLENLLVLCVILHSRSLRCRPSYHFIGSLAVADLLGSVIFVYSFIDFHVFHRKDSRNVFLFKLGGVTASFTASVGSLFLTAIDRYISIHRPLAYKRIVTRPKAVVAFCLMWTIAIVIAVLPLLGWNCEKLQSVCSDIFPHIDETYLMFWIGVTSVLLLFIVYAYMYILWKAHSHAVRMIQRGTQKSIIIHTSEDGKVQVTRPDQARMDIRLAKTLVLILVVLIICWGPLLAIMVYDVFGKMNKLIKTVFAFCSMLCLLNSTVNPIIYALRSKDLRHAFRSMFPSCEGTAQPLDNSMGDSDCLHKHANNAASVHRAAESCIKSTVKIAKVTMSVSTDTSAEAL
Entries and their measured Kd follow.

binder | Kd
RY-HL-LC-C12 FACS4 (IgG4 S228P) (antibody, V domains shown) VH: QVQLVQSGAEVKKPGSSVKVSCKASGYEFSYYWMNWVRQAPGQGLEWMGQIYPGDGETKYAQKFQGRVTITADKSTSTAYMELSSLRSEDTAVYYCARSHGNYLPYWGQGTLVTVSS VL: EIVLTQSPATLSLSPGERATLSCRASQSVSSRYLHWYQQKPGQAPRLLIYSTSRLASGIPARFSGSGSGTDFTLTISRLEPEDFAVYYCHQYHRSPPTFGQGTKVEIKR | 13.9 nM
RY-LC-A10 FACS5 (IgG4 S228P) (antibody, V domains shown) VH: QVQLVQSGAEVKKPGSSVKVSCKASGYEFSYYWMNWVRQAPGQGLEWMGQIYPGDGETKYAQKFQGRVTITADKSTSTAYMELSSLRSEDTAVYYCARSHGNYLPYWGQGTLVTVSS VL: EIVLTQSPATLSLSPGERATLSCRASQSVSSRYLHWYQQKPGQAPRLLIYSTSNRASGIPARFSGSGSGTDFTLTISRLEPEDFAVYYCQQYHRSPPTFGQGTKVEIKR | 12.4 nM
RY-HL-LC-A12 FACS4 (IgG4 S228P) (antibody, V domains shown) VH: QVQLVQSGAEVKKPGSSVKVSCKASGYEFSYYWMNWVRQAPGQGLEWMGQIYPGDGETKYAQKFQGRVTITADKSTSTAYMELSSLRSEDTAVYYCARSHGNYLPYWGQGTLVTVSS VL: EIVLTQSPATLSLSPGERATLSCRASQSVSSRYLHWYQQKPGQAPRLLIYGTSNLASGIPARFSGSGSGTDFTLTISRLEPEDFAVYYCHQYSRSPPTFGQGTKVEIKR | 9.19 nM

Now take the following binder into account.
Inquiry: Any idea what Kd was measured for RY-LC-B12 FACS3 (IgG4 S228P) (antibody, V domains shown) VH: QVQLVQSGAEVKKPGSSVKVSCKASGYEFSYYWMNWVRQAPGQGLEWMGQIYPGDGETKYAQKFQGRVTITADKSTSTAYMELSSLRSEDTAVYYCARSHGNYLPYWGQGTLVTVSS VL: EIVLTQSPATLSLSPGERATLSCRASQSVSSRYLHWYQQKPGQAPRLLIYSTSRLASGIPARFSGSGSGTDFTLTISRLEPEDFAVYYCQQYHRSPPTFGQGTKVEIKR ?
Reply text: 8.89 nM
